The reported numbers originate from patent US11395857B2.

- protocol_description: Biodistribution of 177Lu-labeled αMSH analogues in mice bearing B16F10 mouse melanoma
- Type: in vivo, C57BL/6J mice
- test_context: mouse, urine, iv, total radioactivity; 24 h p.i., C57BL/6J mice, B16F10 melanoma
As shown below, each of these compounds has a reported excreta dose per gram or mL at 24 h value.
Entry rule: numbers only, all in %ID/g.

INSERT INTO assay_data (compound, measure_unit, value) VALUES
  ('CCCC[C@H](NC(=O)CN1CCC(NC(=O)[C@H](CCCCNC(=O)CN2CCN(CC(=O)O)CCN(CC(=O)O)CCN(CC(=O)O)CC2)NC(=O)[C@H](CCC(=O)O)NC(=O)CCCc2ccc(I)cc2)CC1)C(=O)N[C@H]1CC(=O)NCCCC[C@@H](C(N)=O)N(C)C(=O)[C@H](Cc2c[nH]c3ccccc23)N(C)C(=O)[C@H](CCCNC(=N)N)N(C)C(=O)[C@@H](Cc2ccccc2)NC(=O)[C@H](Cc2c[nH]cn2)N(C)C1=O [^177Lu-labeled CCZ01088, metal not drawn]', '%ID/g', 3.17),
  ('CCCC[C@H](NC(=O)CN1CCC(NC(=O)[C@H](CCCCNC(=O)CN2CCN(CC(=O)O)CCN(CC(=O)O)CCN(CC(=O)O)CC2)NC(=O)[C@H](CCC(=O)O)NC(=O)CCCc2ccc(I)cc2)CC1)C(=O)N[C@H]1CC(=O)NCCCC[C@@H](C(N)=O)NC(=O)[C@H](Cc2c[nH]c3ccccc23)NC(=O)[C@H](CCCNC(=N)N)NC(=O)[C@@H](Cc2ccccc2)NC(=O)[C@H](Cc2c[nH]cn2)NC1=O [^177Lu-labeled CCZ01082, metal not drawn]', '%ID/g', 6.11),
  ('CCCC[C@H](NC(=O)CN1CCC(NC(=O)[C@H](CCCCNC(=O)CN2CCN(CC(=O)O)CCN(CC(=O)O)CCN(CC(=O)O)CC2)NC(=O)[C@H](CCC(=O)O)NC(=O)CCCc2ccc(I)cc2)CC1)C(=O)N[C@H]1CC(=O)NCCCC[C@@H](C(N)=O)N(C)C(=O)[C@H](Cc2c[nH]c3ccccc23)NC(=O)[C@H](CCCNC(=N)N)N(C)C(=O)[C@@H](Cc2ccccc2)NC(=O)[C@H](Cc2c[nH]cn2)NC1=O [^177Lu-labeled CCZ01118, metal not drawn]', '%ID/g', 4.39);

Looking up CCCC[C@H](NC(=O)CN1CCC(NC(=O)CN2CCN(CC(=O)O)CCN(CC(=O)O)CCN(CC(=O)O)CC2)CC1)C(=O)N[C@H]1CC(=O)NCCCC[C@@H](C(N)=O)N(C)C(=O)[C@H](Cc2c[nH]c3ccccc23)NC(=O)[C@H](CCCNC(=N)N)N(C)C(=O)[C@@H](Cc2ccccc2)NC(=O)[C@H](Cc2c[nH]cn2)NC1=O [^177Lu-labeled CCZ01106, metal not drawn] , I found its excreta dose per gram or mL at 24 h recorded as 0.94

Looking up CCCC[C@H](NC(=O)CN1CCC(NC(=O)CN2CCN(CC(=O)O)CCN(CC(=O)O)CCN(CC(=O)O)CC2)CC1)C(=O)N[C@H]1CC(=O)NCCCC[C@@H](C(N)=O)NC(=O)[C@H](Cc2c[nH]c3ccccc23)NC(=O)[C@H](CCCNC(=N)N)NC(=O)[C@@H](Cc2ccccc2)NC(=O)[C@H](Cc2c[nH]cn2)NC1=O [^177Lu-labeled CCZ01048, metal not drawn, reference compound] , I found its excreta dose per gram or mL at 24 h recorded as 1.99

Looking up CCCC[C@H](NC(=O)CN1CCC(NC(=O)CN2CCN(CC(=O)O)CCN(CC(=O)O)CCN(CC(=O)O)CC2)CC1)C(=O)N[C@H]1CC(=O)NCCCC[C@@H](C(N)=O)N(C)C(=O)[C@H](Cc2c[nH]c3ccccc23)N(C)C(=O)[C@H](CCCNC(=N)N)N(C)C(=O)[C@@H](Cc2ccccc2)NC(=O)[C@H](Cc2c[nH]cn2)N(C)C1=O [^177Lu-labeled CCZ01099, metal not drawn] , I found its excreta dose per gram or mL at 24 h recorded as 0.46
